STUDY_SYSTEM: Neu5Ac(a2-3)Gal6S(b1-4)[Fuc(a1-3)]GlcNAc
PROCEDURE_SUMMARY: glycan array binding signal (z-score within array); higher = stronger binding
TEST_CONDITIONS: glycan notation: IUPAC condensed, linker removed
Only a selection was taken, and the strongest signals are over-represented in it overall.
QUANTITY_MEASURED: glycan array binding signal (z-score)

INSERT INTO measurements (binder, quantity_measured, value) VALUES
  ('F17aG (Escherichia coli), Q99003 (protein) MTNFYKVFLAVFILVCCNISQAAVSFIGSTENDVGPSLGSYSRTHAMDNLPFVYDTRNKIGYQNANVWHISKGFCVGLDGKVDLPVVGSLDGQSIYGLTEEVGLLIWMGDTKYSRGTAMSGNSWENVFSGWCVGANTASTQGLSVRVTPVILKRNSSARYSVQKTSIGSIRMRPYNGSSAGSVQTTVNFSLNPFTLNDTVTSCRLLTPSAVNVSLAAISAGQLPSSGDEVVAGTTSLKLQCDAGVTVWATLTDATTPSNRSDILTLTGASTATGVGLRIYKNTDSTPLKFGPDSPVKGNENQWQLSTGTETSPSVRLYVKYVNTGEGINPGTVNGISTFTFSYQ', 'glycan array binding signal (z-score)', -0.245),
  ('CBM40 CPF071 (Clostridium perfringens) (protein) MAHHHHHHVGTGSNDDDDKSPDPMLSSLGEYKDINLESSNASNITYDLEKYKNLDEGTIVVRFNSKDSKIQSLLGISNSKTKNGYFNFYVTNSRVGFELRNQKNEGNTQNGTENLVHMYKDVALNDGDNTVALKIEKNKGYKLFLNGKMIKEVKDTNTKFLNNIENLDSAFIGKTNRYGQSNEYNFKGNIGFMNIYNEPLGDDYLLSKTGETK', 'glycan array binding signal (z-score)', 5.09),
  ('HBHA-Rv (Mycobacterium tuberculosum), P0A5P6 (protein) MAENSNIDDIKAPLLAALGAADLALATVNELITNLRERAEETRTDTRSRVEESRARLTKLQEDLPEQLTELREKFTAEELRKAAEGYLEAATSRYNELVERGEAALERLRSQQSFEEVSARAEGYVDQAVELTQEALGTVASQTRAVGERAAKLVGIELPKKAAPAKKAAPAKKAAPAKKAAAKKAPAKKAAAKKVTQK', 'glycan array binding signal (z-score)', 0.273),
  ('CVNH3T (Magnaporthe grisea) (protein) GSHIGPYGNYAGNFSGSSRDICLDGARLRAECRRGDGGYSTSVIDLNRYLSNDNGHFRWVSGGGGGGGTATVTVQQGDTLRDIGRRFDCDFHEIARRNNIQNEDLIYPGQVLQVPTKGGSGGGAGNFWDSARDVRLVDGGKVLEAELRYSGGWNRSRIYLDEHIGNRNGELIHC', 'glycan array binding signal (z-score)', -0.226),
  ('GST Gap3 (Streptococcus parasanguinis) (protein) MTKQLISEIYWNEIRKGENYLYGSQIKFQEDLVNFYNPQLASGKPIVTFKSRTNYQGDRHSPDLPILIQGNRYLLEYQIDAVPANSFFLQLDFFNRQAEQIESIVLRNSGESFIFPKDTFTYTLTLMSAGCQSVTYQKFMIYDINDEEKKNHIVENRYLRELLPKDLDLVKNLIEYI', 'glycan array binding signal (z-score)', 0.06),
  ('Apa (Mycobacterium tuberculosis), Rv1860 (protein) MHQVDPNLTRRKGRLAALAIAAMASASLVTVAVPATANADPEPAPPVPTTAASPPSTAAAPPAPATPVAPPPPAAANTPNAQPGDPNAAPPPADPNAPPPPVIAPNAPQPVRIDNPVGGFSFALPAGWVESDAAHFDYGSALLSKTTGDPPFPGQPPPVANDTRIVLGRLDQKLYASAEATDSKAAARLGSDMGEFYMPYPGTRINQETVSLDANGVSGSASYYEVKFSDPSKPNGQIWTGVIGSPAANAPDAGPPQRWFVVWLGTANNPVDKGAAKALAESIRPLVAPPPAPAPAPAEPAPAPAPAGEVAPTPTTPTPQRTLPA', 'glycan array binding signal (z-score)', -0.633);

Okay, now this binder:
Could you tell me which glycan array binding signal (z-score) is on file for Pwp3 (Candida glabrata) (protein) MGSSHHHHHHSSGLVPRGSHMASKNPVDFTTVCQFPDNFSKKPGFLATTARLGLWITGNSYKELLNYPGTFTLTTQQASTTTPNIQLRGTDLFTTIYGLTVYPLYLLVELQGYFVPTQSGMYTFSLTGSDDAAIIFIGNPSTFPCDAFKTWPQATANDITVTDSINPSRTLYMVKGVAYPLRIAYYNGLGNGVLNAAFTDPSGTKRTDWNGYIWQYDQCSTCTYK ?
-0.332
